# METHOD_NOTES: GDC-0810 mouse pharmacokinetics
# EXPERIMENTAL_PARAMETERS: plasma, po, 30 mg/kg/day
OBSERVABLE: Cmax (ng/mL)
Please give a number only; it is taken to be in ng/mL.

Note down Cmax recorded for `CC/C(=C(/c1ccc(/C=C/C(=O)O)cc1)c1ccc2[nH]ncc2c1)c1ccc(F)cc1Cl`
5330

----------
# METHOD_NOTES: GDC-0810 mouse pharmacokinetics
# EXPERIMENTAL_PARAMETERS: plasma, po, 30 mg/kg/day
OBSERVABLE: Tmax (h)
Please give a number only; it is taken to be in h.

Note down Tmax recorded for `CC/C(=C(/c1ccc(/C=C/C(=O)O)cc1)c1ccc2[nH]ncc2c1)c1ccc(F)cc1Cl`
1

----------
# METHOD_NOTES: GDC-0810 mouse pharmacokinetics
# EXPERIMENTAL_PARAMETERS: plasma, po, 100 mg/kg/day
OBSERVABLE: half-life (h)
Please give a number only; it is taken to be in h.

Note down half-life recorded for CC/C(=C(/c1ccc(/C=C/C(=O)O)cc1)c1ccc2[nH]ncc2c1)c1ccc(F)cc1Cl [GDC-0810]
3

----------
# STUDY_SYSTEM: AR (Homo sapiens)
# Sequence (P10275 whole entry): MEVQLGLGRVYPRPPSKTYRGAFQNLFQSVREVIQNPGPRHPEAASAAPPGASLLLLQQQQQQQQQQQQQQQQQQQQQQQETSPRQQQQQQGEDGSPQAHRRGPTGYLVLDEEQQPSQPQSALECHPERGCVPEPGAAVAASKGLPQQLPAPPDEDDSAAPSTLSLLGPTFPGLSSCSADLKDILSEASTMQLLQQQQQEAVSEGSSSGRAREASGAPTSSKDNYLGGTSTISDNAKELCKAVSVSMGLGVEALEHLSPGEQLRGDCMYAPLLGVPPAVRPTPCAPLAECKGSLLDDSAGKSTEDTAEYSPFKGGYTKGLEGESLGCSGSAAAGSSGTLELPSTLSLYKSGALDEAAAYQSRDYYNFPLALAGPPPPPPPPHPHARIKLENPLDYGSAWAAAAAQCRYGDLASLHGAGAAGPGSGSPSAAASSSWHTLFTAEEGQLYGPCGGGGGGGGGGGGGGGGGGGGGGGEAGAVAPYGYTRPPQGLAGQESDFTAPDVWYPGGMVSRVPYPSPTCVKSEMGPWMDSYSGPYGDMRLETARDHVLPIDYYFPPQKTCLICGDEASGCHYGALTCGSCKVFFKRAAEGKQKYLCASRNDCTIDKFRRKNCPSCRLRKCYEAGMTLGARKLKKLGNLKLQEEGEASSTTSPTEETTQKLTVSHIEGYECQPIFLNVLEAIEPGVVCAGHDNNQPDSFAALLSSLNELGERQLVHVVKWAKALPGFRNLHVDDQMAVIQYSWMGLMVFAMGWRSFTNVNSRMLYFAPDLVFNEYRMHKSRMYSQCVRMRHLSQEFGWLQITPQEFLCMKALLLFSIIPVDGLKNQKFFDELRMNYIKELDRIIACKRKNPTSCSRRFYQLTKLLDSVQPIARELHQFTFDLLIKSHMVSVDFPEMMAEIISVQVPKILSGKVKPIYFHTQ
# METHOD_NOTES: AR competitive radioligand binding assay (MDA-MB-453 cell lysate)
# EXPERIMENTAL_PARAMETERS: 0.6 nM 3H-R1881
# Method: After reaching 90% confluence, cells were harvested, resuspended in TEGM (10 mM TrisHCl pH 7.2, 1 mM EDTA, 10% glycerol, 1 mM β-mercaptoethanol, 10 mM Sodium Molybdate), and frozen in liquid nitrogen in 10 mL aliquots containing 2 × 10^7 cells/mL. […] Reactions were incubated at 4°C overnight. […] Bound ^3H-R1881 was eluted in 30 μL/well Microscint-20 and quantified using a scintillation counter (Top Count).
OBSERVABLE: IC50

Note down IC50 recorded for C[C@]12CC[C@@H]3c4ccc(O)cc4C[C@@H](CCCCCCCCC[S+]([O-])CCCC(F)(F)C(F)(F)F)[C@H]3[C@@H]1CC[C@@H]2O (stereo partly shown)
> 4 µM

----------
# STUDY_SYSTEM: GR (Homo sapiens)
# Sequence (P04150 whole entry): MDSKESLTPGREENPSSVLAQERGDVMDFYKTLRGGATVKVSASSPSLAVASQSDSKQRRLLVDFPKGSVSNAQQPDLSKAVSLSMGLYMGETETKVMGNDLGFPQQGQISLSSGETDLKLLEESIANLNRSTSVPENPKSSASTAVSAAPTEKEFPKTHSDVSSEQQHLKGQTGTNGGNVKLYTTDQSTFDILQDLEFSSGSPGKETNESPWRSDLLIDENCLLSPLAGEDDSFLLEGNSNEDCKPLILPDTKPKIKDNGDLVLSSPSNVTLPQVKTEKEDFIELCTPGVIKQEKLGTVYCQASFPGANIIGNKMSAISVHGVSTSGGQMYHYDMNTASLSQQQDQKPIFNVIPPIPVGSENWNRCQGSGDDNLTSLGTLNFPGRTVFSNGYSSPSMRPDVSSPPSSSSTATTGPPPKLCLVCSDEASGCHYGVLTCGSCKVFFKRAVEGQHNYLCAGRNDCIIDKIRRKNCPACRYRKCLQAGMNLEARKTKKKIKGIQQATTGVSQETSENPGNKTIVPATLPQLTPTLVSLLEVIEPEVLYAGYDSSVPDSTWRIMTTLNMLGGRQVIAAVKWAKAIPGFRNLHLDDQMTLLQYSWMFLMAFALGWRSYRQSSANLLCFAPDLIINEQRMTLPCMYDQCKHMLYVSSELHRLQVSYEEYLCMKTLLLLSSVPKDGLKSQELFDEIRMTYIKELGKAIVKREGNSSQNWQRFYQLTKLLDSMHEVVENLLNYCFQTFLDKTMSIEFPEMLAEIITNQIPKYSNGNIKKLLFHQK
# METHOD_NOTES: GR competitive radioligand binding assay
# EXPERIMENTAL_PARAMETERS: 3.0 nM 3H-dexamethasone; read-out: GR IC50
OBSERVABLE: IC50

Note down IC50 recorded for CC/C(=C(\c1ccc(O)cc1)c1ccc(OCCN(C)C)cc1)c1ccccc1 [4-OH Tam, 4-hydroxytamoxifen]
> 1800 nM

----------
# METHOD_NOTES: GDC-0810 mouse pharmacokinetics
# EXPERIMENTAL_PARAMETERS: plasma, po, 30 mg/kg/day
OBSERVABLE: half-life (h)
Please give a number only; it is taken to be in h.

Note down half-life recorded for CC/C(=C(/c1ccc(/C=C/C(=O)O)cc1)c1ccc2[nH]ncc2c1)c1ccc(F)cc1Cl [GDC-0810]
4

----------
# STUDY_SYSTEM: MR (Homo sapiens)
# Sequence (P08235 1-984): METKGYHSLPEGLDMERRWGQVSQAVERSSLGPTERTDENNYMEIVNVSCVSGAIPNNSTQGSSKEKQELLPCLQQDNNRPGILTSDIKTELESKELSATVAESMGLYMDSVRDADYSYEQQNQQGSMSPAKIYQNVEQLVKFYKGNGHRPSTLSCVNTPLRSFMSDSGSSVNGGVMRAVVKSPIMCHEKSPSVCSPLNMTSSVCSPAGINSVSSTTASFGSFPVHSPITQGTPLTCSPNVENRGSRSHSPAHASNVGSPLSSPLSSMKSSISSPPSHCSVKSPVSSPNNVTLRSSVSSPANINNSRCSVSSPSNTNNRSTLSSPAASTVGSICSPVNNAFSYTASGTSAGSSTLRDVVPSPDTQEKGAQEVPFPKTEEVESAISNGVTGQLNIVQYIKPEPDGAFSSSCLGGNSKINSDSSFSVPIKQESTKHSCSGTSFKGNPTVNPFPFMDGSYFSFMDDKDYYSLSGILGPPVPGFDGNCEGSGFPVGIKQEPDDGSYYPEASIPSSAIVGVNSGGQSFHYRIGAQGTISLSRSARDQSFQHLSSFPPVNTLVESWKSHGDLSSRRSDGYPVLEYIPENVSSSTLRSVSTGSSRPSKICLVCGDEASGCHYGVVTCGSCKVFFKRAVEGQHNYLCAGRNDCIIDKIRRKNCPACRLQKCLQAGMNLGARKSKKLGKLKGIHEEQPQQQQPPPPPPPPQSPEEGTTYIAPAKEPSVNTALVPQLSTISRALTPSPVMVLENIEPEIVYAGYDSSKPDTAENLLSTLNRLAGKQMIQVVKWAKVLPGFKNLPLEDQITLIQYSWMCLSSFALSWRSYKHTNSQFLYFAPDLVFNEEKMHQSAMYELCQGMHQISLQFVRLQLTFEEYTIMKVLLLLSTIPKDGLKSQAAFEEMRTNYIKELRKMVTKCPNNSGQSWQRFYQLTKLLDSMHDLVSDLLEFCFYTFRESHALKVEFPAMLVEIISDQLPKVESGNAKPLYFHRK
# METHOD_NOTES: MR transcriptional reporter assay, antagonist mode (HEPG2 cells)
# EXPERIMENTAL_PARAMETERS: 1 nM aldosterone
OBSERVABLE: IC50 (µM)
Please give a number only; it is taken to be in µM.

Note down IC50 recorded for CC/C(=C(\c1ccc(O)cc1)c1ccc(OCCN(C)C)cc1)c1ccccc1 [4-OH Tam, 4-hydroxytamoxifen]
6.42
